Recorded measurements of drug sensitivity score, one per entry
# Tested on: CAF#5 (primary prostate cancer-associated fibroblasts of myCAF-like type)
# TEST NAME: drug sensitivity score (DSS2, normalised partial AUC of dose-response, 72 h CellTiter-Glo viability) (DSS (dimensionless)); higher = more sensitive (stronger growth inhibition / cytotoxicity); extreme values may be limits of the assay
Quick one: just the number, no unit, thanks!

1. CCC(C)n1ncn(-c2ccc(N3CCN(c4ccc(OCC5COC(Cn6cncn6)(c6ccc(Cl)cc6Cl)O5)cc4)CC3)cc2)c1=O (stereo not given) [Itraconazole] (tested concentration range 0.5-5000 nM) = 0
2. C=CC[C@@H]1/C=C(\C)C[C@H](C)C[C@H](OC)[C@H]2O[C@@](O)(C(=O)C(=O)N3CCCC[C@H]3C(=O)O[C@H](/C(C)=C/[C@@H]3CC[C@@H](O)[C@H](OC)C3)[C@H](C)[C@@H](O)CC1=O)[C@H](C)C[C@@H]2OC [Tacrolimus] (tested concentration range 1-10000 nM) = 0.9

Challenge: Bench note: what drug sensitivity score did Clc1ccc(C(c2ccccc2Cl)C(Cl)Cl)cc1 (stereo not given) [Mitotane] (tested concentration range 1-10000 nM) show?
Response given: 0

Challenge: Then Cc1ncc(Cl)cc1NCc1ccc(C(=O)N[C@@H](CC2CCCC2)C(=O)NC2CC2)s1 (tested concentration range 0.5-5000 nM) ?
Response given: 2.1

Challenge: Then COc1cc(NS(C)(=O)=O)ccc1Nc1c2ccccc2nc2ccccc12 [Amsacrine] (tested concentration range 1-10000 nM) ?
Response given: 2.2

* * *

# Test system: CAF#3 (primary prostate cancer-associated fibroblasts of myCAF-like type)
# TEST NAME: drug sensitivity score (DSS2, normalised partial AUC of dose-response, 72 h CellTiter-Glo viability) (DSS (dimensionless)); higher = more sensitive (stronger growth inhibition / cytotoxicity); extreme values may be limits of the assay
Recorded measurements of drug sensitivity score, one per entry
Quick one: just the number, no unit, thanks!

Example entries begin here.
1) COc1cc(N2CCC(N3CCN(C)CC3)CC2)ccc1Nc1ncc(Cl)c(Nc2ccccc2P(C)(C)=O)n1 [Brigatinib] (tested concentration range 0.1-1000 nM) = 3.1
2) CC(=O)Nc1cccc(-n2c(=O)n(C3CC3)c(=O)c3c(Nc4ccc(I)cc4F)n(C)c(=O)c(C)c32)c1 [Trametinib] (tested concentration range 0-250 nM) = 0

Challenge: Bench note: what drug sensitivity score did C=CC[C@@H]1/C=C(\C)C[C@H](C)C[C@H](OC)[C@H]2O[C@@](O)(C(=O)C(=O)N3CCCC[C@H]3C(=O)O[C@H](/C(C)=C/[C@@H]3CC[C@@H](O)[C@H](OC)C3)[C@H](C)[C@@H](O)CC1=O)[C@H](C)C[C@@H]2OC [Tacrolimus] (tested concentration range 1-10000 nM) show?
Response given: 0.2

Challenge: Then COc1cc(C)c(/C=C/C(C)=C/C=C/C(C)=C/C(=O)O)c(C)c1C [Acitretin] (tested concentration range 1-10000 nM) ?
Response given: 0.2

Challenge: Then Cc1cc(Nc2cc(N3CCN(C)CC3)nc(Sc3ccc(NC(=O)C4CC4)cc3)n2)n[nH]1 [Tozasertib] (tested concentration range 1-10000 nM) ?
Response given: 4.9

* * *

Recorded measurements of drug sensitivity score, one per entry
# System: CAF#5
# TEST NAME: drug sensitivity score (DSS2, normalised partial AUC of dose-response, 72 h CellTiter-Glo viability) (DSS (dimensionless)); higher = more sensitive (stronger growth inhibition / cytotoxicity); extreme values may be limits of the assay

Example entries begin here.
1) Cn1ncc(Cl)c1-c1cc(C(=O)N[C@H](CN)Cc2cccc(F)c2)sc1Cl [Afuresertib] (tested concentration range 0.1-1000 nM) = 2
2) COc1cc2nccc(Oc3ccc(NC(=O)Nc4cc(C)on4)c(Cl)c3)c2cc1OC [Tivozanib] (tested concentration range 1-10000 nM) = 6.9
3) COC(=O)c1ccc2c(c1)NC(=O)/C2=C(\Nc1ccc(N(C)C(=O)CN2CCN(C)CC2)cc1)c1ccccc1 [Nintedanib] (tested concentration range 1-10000 nM) = 5.5
4) CNc1ncc2cc(-c3cc(NC(=O)NCCC(C)(C)C)c(F)cc3C)c(C)nc2n1 (tested concentration range 1-10000 nM) = 7.2

Challenge: Bench note: what drug sensitivity score did CN1CCN(c2nc(C3=C(c4c[nH]c5ccccc45)C(=O)NC3=O)c3ccccc3n2)CC1 [Sotrastaurin] (tested concentration range 1-10000 nM) show?
Response given: 0

Challenge: Then COc1cc(C)c(/C=C/C(C)=C/C=C/C(C)=C/C(=O)O)c(C)c1C [Acitretin] (tested concentration range 1-10000 nM) ?
Response given: 0.8

Challenge: Then O=C(Nc1cnn2ccc(N3CCC[C@@H]3c3cc(F)ccc3F)nc12)N1CC[C@H](O)C1 [Larotrectinib] (tested concentration range 0.1-1000 nM) ?
Response given: 0

Challenge: Then NC(=O)/C(=C/n1cnc(-c2cc(C(F)(F)F)cc(C(F)(F)F)c2)n1)c1cncnc1 [Eltanexor] (tested concentration range 1-10000 nM) ?
Response given: 16.8

Challenge: Then Cc1sc2c(c1C)C(c1ccc(Cl)cc1)=N[C@@H](CC(=O)NCCCCNC(=O)COc1cccc3c1C(=O)N(C1CCC(=O)NC1=O)C3=O)c1nnc(C)n1-2 (stereo partly drawn) [dBET1] (tested concentration range 1-10000 nM) ?
Response given: 8.2
